protein stability index values by entry
# assay procedure: protein stability index of a GFP-peptide fusion (GPS, HEK-293T) (PSI 1-6); higher = more stable;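 also: 24-mer peptide tiles fused after GFP, lentivirally expressed, FACS-sorted into six equal bins by GFP/DsRed ratio, decoded by Illumina sequencing, PSI is the read-weighted mean bin number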
# test parameters: treatment: MLN4924 1 uM, 8 h; c terminus: a fixed tail appended
endpoint name: protein stability index

- biosequence: "AIEGIPGSDYVNANYIDGYRKQNA [PTPRD]"
  result number: 4.6
- biosequence: "NFRVGKKIGCGNFGELRLGKNLYT [CSNK1G1]"
  result number: 2.11
- biosequence: "PGQHLSDYSQLNESTTKESSEASQ [FBXO34]"
  result number: 5.6
- biosequence: "LAAKALLDQKKQDPRVQDFLQRCL [NET1]"
  result number: 2.42
- biosequence: "VVGTPCYISPELCEGKPYNQKSDI [NEK8]"
  result number: 3.49
- biosequence: "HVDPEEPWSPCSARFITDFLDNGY [ADAMTS4]"
  result number: 2.88
- biosequence: "DPVELRRLNFQTPGMASHPPIPIL [PTPRD]"
  result number: 3.04
- biosequence: "KTLALARTMDIPRSVQNFRFFASS [ALDH8A1]"
  result number: 2.6
- biosequence: "FACPSQALFFKNIMNIIDIVSILP [KCNA4]"
  result number: 2.85
- biosequence: "CLHHICTNYNNVCRKFPRDMKAMS [RHOBTB2]"
  result number: 2.42
- biosequence: "QNLLKELQDLALQGAKERAHQQKK [CHGA]"
  result number: 4.52
- biosequence: "IPAEENASTSTPSSTLVRPIRSRR [FAM189A2]"
  result number: 5.33
- biosequence: "RGADDAMESSKPGPVQVVLVQKDQ [ATL3]"
  result number: 4.95
- biosequence: "SEEQVSKNLFGPPLESAFDHEDFT [FCHO1]"
  result number: 5.26
- biosequence: "VNPWIIIGGVATVVCQPNEFIMPD [SEPHS2]"
  result number: 3.05
- biosequence: "SASSIKQILLEWCRSKTLGYQHVD [SMTNL2]"
  result number: 2.42
- biosequence: "DVQSMPKTGILILILSIIFIEGYC [MAGEA10]"
  result number: 2.88
- biosequence: "VKGSRVTVMEKCSDGWWRGSYNGQ [NCK2]"
  result number: 2.29
- biosequence: "RAPLHSVGYTALVGSDAESWGWDL [SPSB4]"
  result number: 3.13
- biosequence: "KHMFERSFTQGEGARPLSTRVPRA [MATN2]"
  result number: 3.85
- biosequence: "TREGFGHSTSLKVPLARSLQISEE [LCOR]"
  result number: 3.82

---

# assay procedure: protein stability index of a GFP-peptide fusion (GPS, HEK-293T) (PSI 1-6); higher = more stable
# test parameters: treatment: MLN4924 1 uM, 8 h; c terminus: a fixed tail appended
# maps each entry to its protein stability index
endpoint name: protein stability index

- biosequence: "NEYAYLPLHVHEEEGILVAVGQDC [DCAF4]"
  result number: 3.91
- biosequence: "SSGAGSSPPAAPCPPPPGPAAAPE [ZBED3]"
  result number: 5.35
- biosequence: "LYIFATCLGLSYDGLLGDNQIMPK [MAGEA3]"
  result number: 2.78
- biosequence: "NDLQDLREQILRVKDTDDVPMILV [RAP1B]"
  result number: 3.06
- biosequence: "GPTSSNPRKRHREDSDVEMVEDDS [MLH1]"
  result number: 5.22
- biosequence: "EEAEELAKEMSVPFYTSRIDEVLL [GFOD1]"
  result number: 4.11
- biosequence: "FPDVPLGIFLFCVCVIAIGVVQAL [TMEM175]"
  result number: 2.28
- biosequence: "ADNKIVSHLLVAEPEKIYAMPDPT [ESRRG]"
  result number: 4.22
- biosequence: "LDADAAQRVVYLEGCGPPLRRWLR [TSPAN10]"
  result number: 2.99
- biosequence: "MMKAKGDLEMKEEEEISETGELVG [ZBED2]"
  result number: 5.35
- biosequence: "GTTMASGGRFRCPSCRHEVVLDRH [TRIM55]"
  result number: 2.12
- biosequence: "ALLDLHFPSDHLGDLGDPFHLGLE [TFE3]"
  result number: 2.32
- biosequence: "LRITSGVVVCQCGLSIPSHSSELT [RPAIN]"
  result number: 2.48
- biosequence: "MNLDIVDLLKKAKFHHSDCLSTWL [RHOBTB3]"
  result number: 2.44
- biosequence: "LQTVTREKEELLQLSIERGKVLQN [CCDC89]"
  result number: 4.42
- biosequence: "EQIKTRTEELIVQTKQVYDAVGML [NLN]"
  result number: 3.88
- biosequence: "ASFDVCESVDEAGGSGPAGLRAST [RHOBTB2]"
  result number: 5.02

Values were extracted from the supplement of paper PMC10567573.
